target: T1, Recombinant CD3epsilon/delta Fc fusion protein (Sino Biological) (human, UniProt P07766 23-126; P04234 22-105); test: SPR (ProteOn XPR36), CD3epsilon/delta Fc fusion captured on anti-Fc chip, variant injected for 240 s; kinetic constants printed above the sensorgrams
T1 construct: Bought reagent; also called recombinant CD3 fusion protein; human CD3 antigen; not shown: Fc of the bought fusion protein; not described
T1 sequence (P07766 23-126, stated change not applied, chain 1 of 2): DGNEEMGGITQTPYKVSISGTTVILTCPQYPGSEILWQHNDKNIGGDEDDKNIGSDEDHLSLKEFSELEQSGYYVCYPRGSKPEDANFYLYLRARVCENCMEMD
T1 sequence (P04234 22-105, stated change not applied, chain 2 of 2): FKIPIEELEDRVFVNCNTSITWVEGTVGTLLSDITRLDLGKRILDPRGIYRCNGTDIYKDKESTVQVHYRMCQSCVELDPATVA
observable: kon (M⁻¹ s⁻¹)
Enter your answer as a number in M⁻¹ s⁻¹; do not include the unit.

[[record]]
binder = "variant 18346, monovalent anti-CD3 scFv-heterodimeric Fc (VL hC3E-1 wildtype, VH hC3E-1 wildtype) (Fc fusion, scFv order VH-(GGGGS)3-VL on Fc chain A; chain B is Fc only; also called v18346; parental construct v18346; not shown: Fc-only chain B is also left out) scFv: EVQLVESGGGLVQPGGSLRLSCAASGVTFNYYGMSWIRQAPGKGLEWVASITNSGGRIYYPDSVKGRFTISRENTQKTLYLQMNSLRAEDTAVYYCTLDGRDGWVAYWGQGTLVTVSSGGGGSGGGGSGGGGSNFMLTQPHSVSESPGKTVTISCKRNTGNIGSNYVNWYQQHEGSSPTTIIYRDDKRPDGVSDRFSGSIDRSSKSASLTISNLKTEDEADYFCQSYSSGFIFGGGTKLTVL"
recordedvalue = "1.39e+06"

[[record]]
binder = "variant 19363, monovalent anti-CD3 scFv-heterodimeric Fc (VL hC3E-1_6L3a (D52N), VH hC3E-1) (Fc fusion, not shown: a dimerising Fc or GST; small tags and cut ends, scFv order VH-(GGGGS)3-VL on Fc chain A; chain B is Fc only; also called v19363) scFv: EVQLVESGGGLVQPGGSLRLSCAASGVTFNYYGMSWIRQAPGKGLEWVASITNSGGRIYYPDSVKGRFTISRENTQKTLYLQMNSLRAEDTAVYYCTLDGRDGWVAYWGQGTLVTVSSGGGGSGGGGSGGGGSQFVLTQPPSASGTPGQRVTISCKRNTGNIGSNYVNWYQQLPGTAPKTIIYRNDKRPDGVPDRFSGSIDSSSNSASLAISGLQSEDEADYYCQSYSSGFIFGGGTKLTVL"
recordedvalue = 578000


Recorded kon for variant 21829, monovalent anti-CD3 scFv-heterodimeric Fc (VL hC3E-1_1L1d, VH hC3E-1(N53R)) (Fc fusion, scFv order VH-(GGGGS)3-VL on Fc chain A; chain B is Fc only; also called v21829; not shown: Fc-only chain B is also left out) scFv: EVQLVESGGGLVQPGGSLRLSCAASGVTFNYYGMSWIRQAPGKGLEWVASITRSGGRIYYPDSVKGRFTISRENTQKTLYLQMNSLRAEDTAVYYCTLDGRDGWVAYWGQGTLVTVSSGGGGSGGGGSGGGGSQVVLTQPPSASGTPGQRVTISCKRNTGNIGSNYVNWYQQLPGTAPKLLIYRDDKRPDGVPDRFSGSKSGTSASLAISGLQSEDEADYYCQSYSSGFIFGGGTKLTVL , please? 1.22e+06
